test system: DeltatarO mutant; experiment: S. aureus survival, RN4220 and DeltatarO strains – OD600, teichoic acid synthesis inhibitors, primary screen (AID 463173); conditions: S. aureus RN4220 wild type/DeltatarO growth, OD600, 18 h, screened at 18.75 µg/mL (by protocol)
The campaign covered roughly 52,000 compounds. About 4,300 (8.3%) were called active. No stated cut-off is given here; in the data, active means survival mostly below about 52% (no sharp cut-off); inactive means mostly above about 56%. For the sample, actives were picked, then their nearest neighbours and some compounds at random.
Outcome (select one): active, inactive

Past entries and their recorded results:
- compound: "COc1ccccc1CNC(=O)CCC1N=C2c3ccccc3N=C(SCc3ccc(C)cc3)N2C1=O (stereo not given)"
  cat: "inactive"
- compound: "CCN(CC)S(=O)(=O)c1nnc(NC(=O)c2ccc(C(C)C)cc2)s1"
  cat: "active"
- compound: "N#C/C(=C/c1ccc(N2CCCCC2)o1)C(=O)NCCc1c[nH]c2ccccc12"
  cat: "inactive"
- compound: "COc1ccc(N2CCN(CCCNC(=O)c3c(C)nn(-c4ccc(F)cc4)c3-n3cccc3)CC2)cc1"
  cat: "inactive"
- compound: "CCCCNC(=O)CSC1=Nc2ccccc2C2=NC(CCC(=O)NCc3ccccc3OC)C(=O)N12 (stereo not given)"
  cat: "active"
- compound: "CCOc1ccc(C(=O)NCCc2sc(-c3ccc(C)cc3)nc2C)cc1"
  cat: "active"
- compound: "COc1ccccc1CNC(=O)CCC1N=C2c3ccccc3N=C(SCC(=O)NCCc3ccccc3)N2C1=O (stereo not given)"
  cat: "inactive"
- compound: "COc1ccc(NC(=O)CC2C(=O)N(c3ccccc3)C(=O)N2CCc2sccc2C)cc1 (stereo not given)"
  cat: "inactive"

# outcome recorded in this test, key = Cc1cccc(C(=O)n2nc(-c3ccco3)nc2NCc2ccccc2)c1
inactive

What was the test verdict on O=C(NCc1ccccc1Cl)C1CCN(C(=O)N2CCOc3ccccc32)CC1 ?
inactive

// outcome(item) with item = CCC(=O)N(c1nnc(-c2cc(OC)c(OC)c(OC)c2)s1)C1CCCC1
inactive

Field: outcome | Entry: COc1ccc(NC(=O)CC2SC(=Nc3ccccc3)N(CCO)C2=O)cc1 (stereo not given)
inactive

Assay result, entry Cc1ccc(Cn2ccnc2SCC(=O)NCc2ccc(F)cc2)cc1 — outcome?
inactive

* * *

system: DeltatarO mutant; test: S. aureus survival, RN4220 and DeltatarO strains – OD600, teichoic acid synthesis inhibitors, primary screen (AID 463173); settings: S. aureus RN4220 wild type/DeltatarO growth, OD600, 18 h, active compounds read low, screened at 18.75 µg/mL (by protocol)
Out of some 52,000 compounds screened, about 4,300 (8.3%) were called active. What follows is part of a selection rich in actives, with near analogues and random picks from the rest.
I'd appreciate it if you could label each record using survival and these ranges: A: < 80%; B: ≥ 80% and < 90%; C: ≥ 90%

- molecule: "COc1ccc(C)cc1NC(=O)c1cc2c(=O)n3cccc(C)c3nc2s1"
  cat: "B"

Class label required: Cc1cccc(-n2c(SCc3nc(-c4ccccc4C)no3)nnc2-c2ccccc2)c1
A

Band of COc1ccc2nc(SCC(O)c3cccc(Br)c3)[nH]c2c1 (configuration not stated) ?
A

Looking at COc1cccc(C(=O)COC(=O)c2cc(-c3cccs3)nc3ccccc23)c1 , which class would you pick?
A

Which class is correct for the following molecule? CC(C(=O)c1ccccc1)n1cnc2ccccc2c1=O (configuration not stated)
C

Which of the defined bands does the recorded survival of COc1ccc(C)cc1NC(=O)C(CCSC)NS(=O)(=O)c1ccc2c(c1)oc(=O)n2C (configuration not stated) sit within?
C

Could you place CC1=C(C(=O)Nc2ccc(C)cc2C)C(c2ccc(Br)cc2)n2ncc(C(=O)Nc3cccc(C)c3)c2N1 (configuration not stated) in its proper category? Many thanks.
C

Which category fits this record: Brc1ccc2nc(SCCOc3ccccc3)[nH]c2c1
A
